Reported Ratio values follow for various compounds
measurement.notes: Ratio between diazepam-insensitive (DI) site / diazepam-sensitive (DS) site
readout.kind: Ratio

smiles.string: CCOC(=O)c1ncn2c1CN(C)C(=O)c1ccccc1-2
readout.kind: Ratio
test.value: 165
//
smiles.string: CCOC(=O)c1ncn2c1CN(Cc1ccccc1)C(=O)c1c(Cl)cccc1-2
readout.kind: Ratio
test.value: 51
//
smiles.string: CCOC(=O)c1ncn2c1CN(Cc1ccccc1)C(=O)c1cc(Cl)ccc1-2
readout.kind: Ratio
test.value: 0.8
//
smiles.string: CCOC(=O)c1ncn2c1CN(Cc1ccccc1)C(=O)c1ccccc1-2
readout.kind: Ratio
test.value: 75
//
smiles.string: Cc1noc(-c2ncn3c2CN(Cc2ccccc2)C(=O)c2c(Cl)cccc2-3)n1
readout.kind: Ratio
test.value: 101
